Data origin: patent US10512700B2

Experiment: Plasma protein binding, Rapid Equilibrium Dialysis
Type: in vitro ADME, mouse
Design: dose or concentration left out as unconfirmed
Settings: mouse, mouse serum, 4 h at 37° C.
recorded-endpoint: fraction unbound at 4 h
Answer with the value's number alone.

## Task Using known records, supply fraction unbound at 4 h for O=C(c1ccc(F)cc1)N1CCN(C(=O)c2cc(Cc3n[nH]c(=O)c4ccccc34)ccc2F)CC1 [c-2 (^19F)]
## Result 0.36

###

Assay: Plasma protein binding, Rapid Equilibrium Dialysis
Format: in vitro ADME, mouse
Details: 10 μM in mouse serum, 4 h at 37° C.
The label is condition met for % plasma free fraction below 8% and condition not met for % plasma free fraction equal to or exceeding 8%.

Below are worked cases with known answers.
# compound, label
records = [
    ("O=C(c1cccc(I)c1)N1CCN(C(=O)c2cc(Cc3n[nH]c(=O)c4ccccc34)ccc2F)CC1 [c-1 (^127I)]", "condition not met"),
    ("O=C(c1ccc(I)cc1)N1CCN(C(=O)c2cc(Cc3n[nH]c(=O)c4ccccc34)ccc2F)CC1 [c-2 (^127I)]", "condition not met"),
    ("O=C(Cc1ccc(I)cc1)N1CCN(C(=O)c2cc(Cc3n[nH]c(=O)c4ccccc34)ccc2F)CC1 [c-4 (^127I)]", "condition met"),
    ("O=C(Cc1cccc(I)c1)N1CCN(C(=O)c2cc(Cc3n[nH]c(=O)c4ccccc34)ccc2F)CC1 [c-3 (^127I)]", "condition met"),
]

## Task Field: below-cutoff. Rule: recorded % plasma free fraction strictly less than 8%. Subject: O=C(CCc1ccc(I)cc1)N1CCN(C(=O)c2cc(Cc3n[nH]c(=O)c4ccccc34)ccc2F)CC1 [c-6 (^127I)]
## Result condition met
